Molecular target: T1, cynomolgus monkey IL-2Rβ/CD122 subunit (cynomolgus monkey) (UniProt Q38J85)
T1 sequence (looked up): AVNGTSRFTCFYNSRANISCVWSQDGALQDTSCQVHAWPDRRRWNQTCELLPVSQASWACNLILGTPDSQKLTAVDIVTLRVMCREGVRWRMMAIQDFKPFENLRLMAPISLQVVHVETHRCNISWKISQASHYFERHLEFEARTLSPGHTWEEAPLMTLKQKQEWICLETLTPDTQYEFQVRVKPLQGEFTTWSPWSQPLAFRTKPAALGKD
Assay: ELISA, monovalent VHH-hFc
pEC50 values by entry
Quick note: pEC50 means taking -log10 of the concentration in moles per liter.

Consider the worked cases shown below.
- binder: "22-MP03F12 VHH-hFc, monospecific monovalent (Fc fusion, part only; not given: Both Fc arms and linker, not shown: another chain or arm of the molecule; a dimerising Fc or GST; large carriers; small tags and cut ends) VHH: EVQLVESGGGLVQAGGSLRLSCAASGSIFSINAMAWFRQVPGMERELVAAISRDGGASVYRDSVKGRFTISRDNSKNTVYLQMNTLKPEDTAIYVCAATRAIGWTARWITTDFDFWGQGTQVTVSS"
  pEC50: 9.81
- binder: "26-MP06A07 VHH-hFc, monospecific monovalent (Fc fusion, part only; not given: Both Fc arms and linker, not shown: another chain or arm of the molecule; a dimerising Fc or GST; large carriers; small tags and cut ends) VHH: QVQLQESGGGLVQAGGSLRLSCAASGDVFVRYTMAWFRQAPGKEREFVASVTDSGRTTEYVDSVKGRFTVSRDNAKNTAYLQMNNLKPEDTAIYYCAANTDYFQIRSLDLNTWGQGTQVTVSS"
  pEC50: 9.99

Inquiry: For the binder shown here, 23-MP06F03 VHH-hFc, monospecific monovalent (Fc fusion, part only; not given: Both Fc arms and linker, not shown: another chain or arm of the molecule; a dimerising Fc or GST; large carriers; small tags and cut ends) VHH: QVQLVESGGGLVQAGGSLRLSCAVSGDVFVRYTMAWFRQAPGKEREFVASVTDSGRTTDYVHSVKGRFTVSRDNAKNTVYLQMNNLKPEDTAVYYCAANTDYFQIKSLDANTWGQGTQVTVSS , give the reported pEC50.
Reply text: 9.59
